test system: Methylococcus capsulatus strain MC; experiment: Stimulation of propylene epoxidation in cell suspensions; format: cell-based; details: Propylene + 5 mM stimulator compound
Where a name gives a salt, the structure may show the parent alone.
measured-metric: Rate of Product Formation (Propylene Oxide) (nmoles/hr/mg protein)
Answers are plain numbers, in nmoles/hr/mg protein.

Name the value of Rate of Product Formation (Propylene Oxide) reported for CCC(C)O (centres unmarked) when tested on Methylococcus capsulatus strain MC.
21

Name the value of Rate of Product Formation (Propylene Oxide) reported for CCCO when tested on Methylococcus capsulatus strain MC.
243

Name the value of Rate of Product Formation (Propylene Oxide) reported for COC(C)=O [Methyl Acetate] when tested on Methylococcus capsulatus strain MC.
21

Name the value of Rate of Product Formation (Propylene Oxide) reported for CC=O when tested on Methylococcus capsulatus strain MC.
154

Name the value of Rate of Product Formation (Propylene Oxide) reported for CCO when tested on Methylococcus capsulatus strain MC.
462

State recorded Rate of Product Formation (Propylene Oxide) for all listed compounds.
1. COC=O [Methyl Formate]
2. CC(C)O
3. CCC=O

1. 390
2. 37
3. 40

The values you see were collected from patent US4368267A.
